Molecular target: Kras and SOS1 (biotin-tagged human Kras loaded with GDP, His-tagged human SOS1) (Homo sapiens, UniProt P01116, G12D)
Construct: made in house; host or cells: E. coli (stated for Kras only)
Sequence (P01116 1-188 isoform P01116-2 G12D): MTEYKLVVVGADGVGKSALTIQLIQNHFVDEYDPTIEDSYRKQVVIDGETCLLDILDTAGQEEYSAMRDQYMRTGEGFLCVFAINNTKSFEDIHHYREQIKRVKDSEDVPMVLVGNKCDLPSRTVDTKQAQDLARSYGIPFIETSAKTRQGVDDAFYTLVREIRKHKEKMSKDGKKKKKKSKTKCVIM
Test: Protein-protein interaction inhibition between Kras and SOS1 (KrasGl2D-SOS PPI) using AlphaScreen
Type: binding
Conditions: AlphaScreen; biotin-tagged human Kras loaded with GDP, His-tagged human SOS1; read-out: KRAS G12D-SOS PPI IC50
Positions of bridges follow the written chain, without caps; N, C: chain ends. Non-standard residues stand in square brackets, D forms with d. Residues, ends and D or L forms follow the SMILES beside them. *: point of attachment. hPhe(3-Cl-4-CF3) = N[C@@H](CCc1ccc(C(F)(F)F)c(Cl)c1)C(=O)O; hPhe(4-CF3) = N[C@@H](CCc1ccc(C(F)(F)F)cc1)C(=O)O; 3Oxa8azabicyclo(3.2.1)octane = C1CC2COCC1N2*; NMePhe(4-Cl) = CN[C@@H](Cc1ccc(Cl)cc1)C(=O)O; NMeAla(cPent) = CN[C@@H](CC1CCCC1)C(=O)O; Pro(4,4-F2) = O=C(O)[C@@H]1CC(F)(F)CN1; NMeCha = CN[C@@H](CC1CCCCC1)C(=O)O; NMeChg = CN[C@H](C(=O)O)C1CCCCC1; NMeF = CN[C@@H](Cc1ccccc1)C(=O)O; NMeD = CN[C@@H](CC(=O)O)C(=O)O; NMeL = CN[C@@H](CC(C)C)C(=O)O; NMeV = CN[C@H](C(=O)O)C(C)C; d(β3hA) = C[C@@H](N)CC(=O)O; NMeAbu = CC[C@H](NC)C(=O)O; NMeS = CN[C@@H](CO)C(=O)O; NMeA = CN[C@@H](C)C(=O)O; NMeAib = CNC(C)(C)C(=O)O; Piperidide = C1CCN(*)CC1; Pyrrolidide = C1CCN(*)C1; Ac5c = NC1(C(=O)O)CCCC1; X47 = Fc1cncc(C*)c1; Sar = CNCC(=O)O
Measured IC50 accompanies every entry in the list below.
Could you give me the number in nM? Just the number is fine.

Before answering, review these 4 worked examples.
| Compound | IC50 / nM |
| --- | --- |
| CC[C@H](C)[C@@H]1NC(=O)[C@H](C)N(C)C(=O)C[C@@H](C)NC(=O)[C@H](CC(C)C)N(C)C(=O)[C@H](Cc2ccccc2)N(C)C(=O)[C@@H]2CC(F)(F)CN2C(=O)[C@H](CCc2ccc(C(F)(F)F)cc2)NC(=O)CN(C)C(=O)[C@H](Cc2ccc(Cl)cc2)N(C)C(=O)CN(C)C(=O)CN(C)C1=O [Compound 870] (cyclo(I[Sar][Sar][NMePhe(4-Cl)][Sar][hPhe(4-CF3)][Pro(4,4-F2)][NMeF][NMeL][d(β3hA)][NMeA])) | 15 |
| CC[C@H](C)[C@@H]1NC(=O)[C@H](CC(C)C)N(C)C(=O)C[C@@H](C(=O)N2CCCCC2)N(C)C(=O)[C@H](C2CCCCC2)N(C)C(=O)C2(CCCC2)NC(=O)[C@H](COCc2cncc(F)c2)N(C)C(=O)[C@H](CCc2ccc(C(F)(F)F)c(Cl)c2)NC(=O)CN(C)C(=O)[C@H](CC2CCCCC2)N(C)C(=O)CN(C)C(=O)CN(C)C1=O [Compound 950] ([NMeL]I[Sar][Sar][NMeCha][Sar][hPhe(3-Cl-4-CF3)][NMeS](X47)[Ac5c][NMeChg][NMeD]-Piperidide; lactam N-11) | 9 |
| CC[C@H](C)[C@@H]1NC(=O)[C@H](C)N(C)C(=O)C[C@@H](C(=O)N2CCCCC2)N(C)C(=O)[C@H](C(C)C)N(C)C(=O)C(C)(C)N(C)C(=O)[C@@H]2CCCN2C(=O)[C@H](CCc2ccc(C(F)(F)F)c(Cl)c2)NC(=O)CN(C)C(=O)[C@H](CC2CCCCC2)N(C)C(=O)CN(C)C(=O)CN(C)C1=O [Compound 507] ([NMeA]I[Sar][Sar][NMeCha][Sar][hPhe(3-Cl-4-CF3)]P[NMeAib][NMeV][NMeD]-Piperidide; lactam N-11) | 0.48 |
| CC[C@H](C)[C@@H]1NC(=O)[C@H](CC)N(C)C(=O)C[C@@H](C(=O)N2C3CCC2COC3)N(C)C(=O)[C@H](C2CCCCC2)N(C)C(=O)C2(CCCC2)NC(=O)[C@@H]2CCCN2C(=O)[C@H](CCc2ccc(C(F)(F)F)c(Cl)c2)NC(=O)CN(C)C(=O)[C@H](CC2CCCCC2)N(C)C(=O)CN(C)C(=O)CN(C)C1=O [Compound 1901] ([NMeAbu]I[Sar][Sar][NMeCha][Sar][hPhe(3-Cl-4-CF3)]P[Ac5c][NMeChg][NMeD]-{3Oxa8azabicyclo(3.2.1)octane}; lactam N-11) | 0.56 |

Q) Could you share which IC50 value was measured for CC[C@H](C)[C@@H]1NC(=O)[C@H](CC(C)C)N(C)C(=O)C[C@@H](C(=O)N2CCCC2)N(C)C(=O)[C@H](C2CCCCC2)N(C)C(=O)C2(CCCC2)NC(=O)[C@@H]2CCCN2C(=O)[C@H](CCc2ccc(C(F)(F)F)c(Cl)c2)NC(=O)CN(C)C(=O)[C@H](CC2CCCC2)N(C)C(=O)CN(C)C(=O)CN(C)C1=O [Compound 1969] ([NMeL]I[Sar][Sar][NMeAla(cPent)][Sar][hPhe(3-Cl-4-CF3)]P[Ac5c][NMeChg][NMeD]-Pyrrolidide; lactam N-11) ?
A) 0.61

Numbers sourced from patent US12371454B2.
